Molecular target: CDK6/CCND1 (Homo sapiens)
Sequence (Q00534 whole entry): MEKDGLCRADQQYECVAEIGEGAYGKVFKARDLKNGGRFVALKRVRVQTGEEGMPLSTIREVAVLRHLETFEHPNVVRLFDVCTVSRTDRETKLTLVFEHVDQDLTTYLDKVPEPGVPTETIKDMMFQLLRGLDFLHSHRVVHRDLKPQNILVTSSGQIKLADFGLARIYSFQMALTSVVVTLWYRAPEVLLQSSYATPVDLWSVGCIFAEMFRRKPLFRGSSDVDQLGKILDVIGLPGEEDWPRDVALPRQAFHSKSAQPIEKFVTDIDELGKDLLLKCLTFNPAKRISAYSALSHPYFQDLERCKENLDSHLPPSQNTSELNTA
Sequence (P24385 whole entry partner): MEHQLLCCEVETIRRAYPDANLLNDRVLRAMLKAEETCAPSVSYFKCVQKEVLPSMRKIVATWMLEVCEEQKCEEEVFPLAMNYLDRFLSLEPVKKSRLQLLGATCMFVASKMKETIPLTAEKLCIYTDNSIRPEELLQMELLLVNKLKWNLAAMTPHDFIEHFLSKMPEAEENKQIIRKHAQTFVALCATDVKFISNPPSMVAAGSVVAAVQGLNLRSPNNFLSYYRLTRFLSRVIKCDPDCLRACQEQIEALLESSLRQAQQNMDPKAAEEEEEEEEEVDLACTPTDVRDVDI
Test: CDK6 homogeneous time-resolved fluorescence (HTRF) kinase assay
Type: biochemical
Conditions: 1 nM CDK6/CCND1, 1 mM ATP; read-out: CDK6/CCND IC50 >250 nM
Counter-ions that a name gives are not always drawn.
Measured IC50 by item

Please review the entries below; each comes with its answer.
[
  {
    "Compound": "Cc1c(-c2nccc3cnc(Nc4ccc(S(C)(=O)=O)cc4)nc23)ccc2nn(C)cc12 [Example 965]",
    "IC50": "> 250 nM"
  },
  {
    "Compound": "CS(=O)(=O)c1ccc(Nc2cc3c(N4CCC(C#N)CC4)c(C#N)cnc3cn2)cc1 [Example 953]",
    "IC50": "> 250 nM"
  },
  {
    "Compound": "Cc1cc(N2CCC(C#N)CC2)c2nc(Nc3ccc(S(C)(=O)=O)cc3)ncc2c1 [Example 954]",
    "IC50": "> 250 nM"
  },
  {
    "Compound": "CS(=O)(=O)c1ccc(Nc2ncc3ccc(C#N)c(C#Cc4ccc5c(c4)CCNC5)c3n2)cc1 [Example 948, TFA Salt]",
    "IC50": "> 250 nM"
  },
  {
    "Compound": "CS(=O)(=O)c1ccc(Nc2cc3c(C4=CCCCC4)ncnc3cn2)cc1 [Example 950]",
    "IC50": "> 250 nM"
  },
  {
    "Compound": "CS(=O)(=O)c1ccc(Nc2ncc3ccnc(C#Cc4ccc(C#N)cc4)c3n2)cc1 [Example 949]",
    "IC50": "> 250 nM"
  }
]

Pending compound:
Give recorded IC50 with CDK6/CCND1 (Homo sapiens) for the following compound: CS(=O)(=O)c1ccc(Nc2ncc3ccc(C#N)c(C#Cc4ccc(C#N)cc4)c3n2)cc1 [Example 955]
> 250 nM

* * *

Molecular target: CDK4/CCND3 (Homo sapiens)
Sequence (P11802 whole entry): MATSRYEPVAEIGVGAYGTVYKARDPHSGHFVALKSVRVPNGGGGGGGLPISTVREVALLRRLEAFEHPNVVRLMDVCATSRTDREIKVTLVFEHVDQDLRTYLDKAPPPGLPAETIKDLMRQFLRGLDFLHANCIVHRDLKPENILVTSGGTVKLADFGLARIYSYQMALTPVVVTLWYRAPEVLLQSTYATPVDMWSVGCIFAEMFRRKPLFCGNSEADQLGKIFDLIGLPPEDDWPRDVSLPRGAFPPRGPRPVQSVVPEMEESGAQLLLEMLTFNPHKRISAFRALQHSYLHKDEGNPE
Sequence (P30281 whole entry partner): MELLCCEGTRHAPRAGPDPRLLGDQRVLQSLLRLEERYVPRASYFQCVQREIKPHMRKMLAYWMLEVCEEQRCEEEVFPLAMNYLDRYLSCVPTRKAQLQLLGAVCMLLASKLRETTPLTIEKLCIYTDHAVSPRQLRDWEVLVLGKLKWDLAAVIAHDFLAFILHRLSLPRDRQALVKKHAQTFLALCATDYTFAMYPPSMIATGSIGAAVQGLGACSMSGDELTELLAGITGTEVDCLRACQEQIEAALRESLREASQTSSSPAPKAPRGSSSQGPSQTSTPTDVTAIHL
Experiment: CDK4 homogeneous time-resolved fluorescence (HTRF) kinase assay
Format: biochemical
Conditions: CDK4/CCND; x = IC50 >250 nM; read-out: CDK4/CCND IC50 (>250 nM column)
pIC50: −log10 of the molar value.
Measured pIC50 by item

Please review the entries below; each comes with its answer.
[
  {
    "Compound": "CCC1(CC)C(=O)Nc2cc(C#Cc3nccc4cnc(Nc5ccc(S(=N)(=O)C6CCC6)cc5)cc34)ccc21 (single isomer, unassigned) [Example 413]",
    "pIC50": "< 6.60"
  },
  {
    "Compound": "CC(=O)Nc1cc(Nc2cc3c(-c4ccc5c(cnn5CCO)c4C)nccc3cn2)ccc1S(C)(=O)=O [Example 593]",
    "pIC50": "< 6.60"
  },
  {
    "Compound": "Cc1cc(S(C)(=O)=O)ccc1Nc1cc2c(C#Cc3ccc4c(c3)NC(=O)C4(C)C)nccc2cn1 [Ex 424]",
    "pIC50": "< 6.60"
  }
]

Could you tell me which pIC50 is on file for COc1ccc(C#Cc2nccc3cnc(Nc4ccc(S(C)(=O)=O)cc4)cc23)nn1 [Ex 514] ?
< 6.60

Also CCC1(CC)C(=O)Nc2cc(C#Cc3nccc4cnc(Nc5ccc(S(C)(=N)=O)cc5)cc34)ccc21 (single isomer, unassigned) [Ex 426] ?
< 6.60

Also CS(=O)(=O)c1ccc(Nc2cc3c(C#Cc4cccc5cn[nH]c45)nccc3cn2)cc1 [Ex 621] ?
< 6.60

Also CS(=O)(=O)c1ccc(Nc2cc3c(C#Cc4ccc(C#N)cc4N)nccc3cn2)cc1 [Ex 567] ?
< 6.60
